Where these numbers come from: paper PMC8277577

- Target Desc: SARS-CoV-2 receptor binding domain (RBD) (SARS-CoV-2, GenBank MN985325.1 …, UniProt P0DTC2)
- Assay Method Text: BLI
- Condition Summary: both partners purified
pKd: −log10 of the molar value.
Measured pKd of individual entries

Binder | pKd
C871 (antibody, V domains shown, source: recombinant, purified) VH: EVQLVESGGGLIQTGGSLKLSCAASGFIVTNNYMSWVRQAPGKGLEWVSVIYSGGTTYYADSVKGRFTISRDISKNTLYLQMNSLKAEDTAVYYCAREGDVEGISDSWSGYSRDRYYFDHWGQGTLVTVSS VL: QSALTQPASVSGSPGQSITISCTGTSSDVGGYNYVSWYQQHPGKAPKLMIYDVSNRPPTISNRFSGSKSGNTASLIISGLQPEDEADYYCSSFTSNNTRVFGTGTKVTVL | 8.56
C937 (antibody, V domains shown, source: recombinant, purified) VH: EVQLVESGGGLIQPGGSLRLSCAASELTVSSNYMSWVRQAPGKGLEWVSVIYPGGSTFYADSVKGRFTISRDNSKNTLYLQMNSLRAEDTAVYYCARDLGTGLFDYWGQGTLVTVSS VL: DIQLTQSPSFLSASVGDRVTITCRASQGISSYLAWYQQKPGKAPKLLIYAASTLQSGVPSRFSGSGSGTEFTLTISSLQPEDFATYFCQLLNSNPPGTFGPGTKVDIK | 8.36
C929 (antibody, V domains shown, source: recombinant, purified) VH: EVQLVESGGGLIQPGGSLRLSCAASGFTVSSNYMTWVRQAPGKGLEWVSVIYSGGTTYYADSVKGRFTISRDNSKNTLYLQMNSLRAEDTAVYYCARDLVVWGMDVWGQGTTVTVSS VL: DIQLTQSPSFLSASVGDRVTITCRASQGISSYLAWYQQKPGKAPKLLIYAASTLQSGVPSRFSGSGSGTEFTLTISSLQPEDFATYYCQLLNSYPYTFGQGTKLEIK | 9.10
